Test system: TK-10 renal
Experiment: NCI tumour cell line growth inhibition, 48 h; in the data active = GI50 below about 0.43 µM; inactive = the rest
Select the matching outcome among active, inactive

Recorded results for 5 molecules are shown here.
INSERT INTO measurements (molecule, experimental_system, classification) VALUES
  ('CC1(C)C=CC[C@]2(C)[C@H]3CC[C@@H]4[C@H]5[C@H](C(=O)/C=C/c6cccnc6)CC[C@]5(CO)CC[C@@]4(C)[C@]3(C)CC[C@@H]12', 'TK-10 renal', 'inactive'),
  ('COc1cc(-c2cnn(C)c2)ccc1Nc1ncc2ccnc(N[C@@H](C)C(C)(C)C)c2n1', 'TK-10 renal', 'inactive'),
  ('S=C(Nc1ccc(-c2nc3ccccc3[nH]2)cc1)NC1CCCCC1', 'TK-10 renal', 'inactive'),
  ('Nc1c(C(=O)c2ccccc2)sc2nc(-c3cccs3)ccc12', 'TK-10 renal', 'active'),
  ('Clc1nc(Oc2ccccc2)nc(-c2cn(-c3ccccc3)c3ccccc23)n1', 'TK-10 renal', 'inactive');

Query block: For this molecule, state the assay outcome: `CC[N+](CCCCCCCCCC[N+](CC)(c1ccccn1)c1ccccn1)(c1ccccn1)c1ccccn1`
Result block: inactive

Query block: For this molecule, state the assay outcome: C=CC(=O)N1CCCC(n2nc(-c3ccc(Oc4ccccc4)cc3)c3c(N)ncnc32)C1 (stereo not drawn)
Result block: active

Query block: For this molecule, state the assay outcome: `COc1cc(-c2nc3ccc(C)cc3[nH]2)ccc1OCC(=O)N=Nc1c(O)[nH]c2ccccc12`
Result block: inactive

Query block: For this molecule, state the assay outcome: `CCOc1ccc(/C=C/C(=O)c2ccccc2)cc1`
Result block: inactive

Query block: For this molecule, state the assay outcome: `O=C(Nc1ccccc1C(F)(F)F)c1cccc(NC2=C(Cl)C(=O)N(Cc3ccccc3)C2=O)c1`
Result block: inactive

Query block: For this molecule, state the assay outcome: `COc1cc(OC)c(/C=C/c2ccc3ccccc3[n+]2C)c(OC)c1`
Result block: inactive

Query block: For this molecule, state the assay outcome: CCCCCCC/C=C/[C@H]1O[C@]23C(=O)C[C@@]4(C[C@@H](OC5OC(CO)C(O)C(O)C5O)C[C@@H]4[C@H]2C=C1C)OC3=O (stereo partly drawn)
Result block: inactive

Query block: For this molecule, state the assay outcome: `COc1cc2c(cc1OCc1ccccc1)N=C[C@@H]1C/C(=C/C(=O)NCCCN3C(=O)c4cccc5cccc(c45)C3=O)CN1C2=O`
Result block: inactive

* * *

Tested on: NCI-H226 lung
Assay: NCI tumour cell line growth inhibition, 48 h
Here the recorded TGI is given for each entry.

Would you please look over these solved cases?
INSERT INTO results (molecule, reported_property, result) VALUES
  ('CCN(CC)CCCCC1CCN(CC(=O)N2CC(C)C(=O)Nc3ccccc32)CC1 (centres undefined)', 'TGI', '> 100 µM'),
  ('N#CCCc1nc2ccc(Br)cc2c(=O)n1CCO', 'TGI', '> 100 µM'),
  ('Cc1cc2nc3c(=O)n(C)c(=O)nc-3n(-c3ccc(Cl)cc3)c2cc1C', 'TGI', '37.6 µM'),
  ('CCOC(=O)[C@@H](C)C[C@H](Cc1ccccc1)NC(=O)c1csc([C@@H](C[C@H](C(C)C)N(C)C(=O)[C@@H](NC(=O)[C@H]2C[C@H](O[Si](C)(C)C(C)(C)C)CCN2C)C(C)C)OC(C)=O)n1', 'TGI', '> 4.18 µM'),
  ('COc1cc(/C=C2/SC(c3ccccc3)N(c3cccc([N+](=O)[O-])c3)C2=O)cc(OC)c1OC (centres undefined)', 'TGI', '> 100 µM');

Query block: What is its TGI for NCI-H226 lung? Entry: `CC[N+](C)(CC)CCN1C(=O)c2ccccc2S1(=O)=O`
Result block: > 100 µM

Query block: What is its TGI for NCI-H226 lung? Entry: CCCCCCCCCCCCCCCCNc1nc(=O)n(C2CC(O)C(CO)O2)cc1F (centres undefined)
Result block: 10.8 µM

Query block: What is its TGI for NCI-H226 lung? Entry: `CCOc1ccccc1NC(=O)/C=C1\NC(=O)CS1`
Result block: > 100 µM

Query block: What is its TGI for NCI-H226 lung? Entry: `O=c1cc(-c2ccccc2)[nH]c2cc(Cl)cc(Cl)c12`
Result block: > 100 µM

* * *

Test system: NCI-H460 lung
Assay: NCI tumour cell line growth inhibition, 48 h
Response key: Fulfilled means TGI >= 20 µM; Not fulfilled means TGI < 20 µM.

Recorded results for 5 compounds are shown here.
INSERT INTO measurements (compound, classification) VALUES
  ('COc1cc(/C=C/c2cc(C(F)(F)F)[nH]c(=O)n2)ccc1OCc1ccccc1F', 'Fulfilled'),
  ('Cc1cc2nc3c(=O)n(C)c(=O)nc-3n(-c3ccc(Cl)cc3)c2cc1C', 'Not fulfilled'),
  ('COc1cc([C@H](C)c2ccc3ccccc3c2)cc(OC)c1OC', 'Not fulfilled'),
  ('COc1cccc(-c2nc3sccn3c2-c2ccnc(NCCNC(=O)Nc3cccc(C(F)(F)F)c3)n2)c1', 'Not fulfilled'),
  ('CCOC(=O)c1sc2c(c1OC(=O)c1ccccc1)c(=O)n(-c1ccccc1)c(=S)n2-c1ccccc1', 'Fulfilled');

Query block: Dear colleague, could you confirm whether CN1CCN(CCSC2Cc3cc(Cl)ccc3Sc3ccccc32)CC1 (stereo not given) has TGI at or above 20 µM?
Result block: Not fulfilled

Query block: Dear colleague, could you confirm whether `CCN(CC)CCNc1c(OC)cc(C)c2sc3ccccc3c(=O)c12` has TGI at or above 20 µM?
Result block: Not fulfilled

Query block: Dear colleague, could you confirm whether NC(CCCCNC(=O)OCc1ccccc1)C(=O)NC(CCCCNC(=O)OCc1ccccc1)C(=O)ON1C(=O)CCC1=O (stereo not given) has TGI at or above 20 µM?
Result block: Fulfilled

Query block: Dear colleague, could you confirm whether CSc1ncc2c(n1)-c1ccccc1OC2N1CCCC1 (stereo not given) has TGI at or above 20 µM?
Result block: Fulfilled

Query block: Dear colleague, could you confirm whether `O=C(N=Nc1ccccc1Br)NNc1ccccc1Br` has TGI at or above 20 µM?
Result block: Fulfilled

* * *

Tested on: UACC-62 melanoma
Assay: NCI tumour cell line growth inhibition, 48 h; in the data active means GI50 below about 0.43 µM; inactive means the rest
Select the matching outcome among active, inactive

Recorded results for 3 compounds are shown here.
INSERT INTO measurements (compound, classification) VALUES
  ('CC(C)c1ccc(Cc2cnc(NC(=O)c3cc(Br)cs3)s2)cc1', 'inactive'),
  ('CN1CCN(Cc2ccc(NC(=O)c3cncc(C#Cc4cnc(N)c5ccc(F)cc45)c3)cc2C(F)(F)F)CC1', 'inactive'),
  ('COc1cc2c(cc1OCc1ccccc1)N=C[C@@H]1C/C(=C/C(=O)NCCCN3C(=O)c4cccc5cccc(c45)C3=O)CN1C2=O', 'inactive');

Query block: For this compound, state the assay outcome: `O=C(Nc1ccccc1C(F)(F)F)c1cccc(NC2=C(Cl)C(=O)N(Cc3ccccc3)C2=O)c1`
Result block: inactive

Query block: For this compound, state the assay outcome: `COc1ccc(/C=C/c2cc(OC)c(OC)c(OC)c2)cc1NC(=O)/C=C/c1ccc(F)cc1`
Result block: inactive

Query block: For this compound, state the assay outcome: `CCOC(=O)[C@@H](C)C[C@H](Cc1ccccc1)NC(=O)c1csc([C@@H](C[C@H](C(C)C)N(C)C(=O)[C@@H](NC(=O)[C@H]2C[C@H](O[Si](C)(C)C(C)(C)C)CCN2C)C(C)C)OC(C)=O)n1`
Result block: active

Query block: For this compound, state the assay outcome: `CC1=CC[C@@H]2CC[C@]3(C)[C@H](CC[C@@H]4[C@@]5(C)CCCNC(C)(C)[C@@H]5CC[C@]43C)[C@H]2[C@@H]1C`
Result block: inactive

* * *

Here the recorded TGI is given for each entry.
System: MDA-MB-435
Assay: NCI tumour cell line growth inhibition, 48 h
Give a bare numeral; the unit µM is implied.

Would you please look over these solved cases?
INSERT INTO results (compound, reported_property, quantitative_result) VALUES
  ('O=[N+]([O-])c1ccc2[nH]cc(-c3c4ccsc4cc4[nH]c5ccc([N+](=O)[O-])cc5c34)c2c1', 'TGI', 33.3),
  ('NC(N)=N/N=C/c1nc2sccn2c1[N+](=O)[O-]', 'TGI', 39.9);

Query block: Which TGI is listed for `COc1ccc2c(c1)CCc1c-2n(CCN(C)C)c2ccc(OC)cc12` ?
Result block: 32.6

Query block: Which TGI is listed for C=CC(=O)N1CCCC(n2nc(-c3ccc(Oc4ccccc4)cc3)c3c(N)ncnc32)C1 (stereo not given) ?
Result block: 22.5

Query block: Which TGI is listed for `Cc1[nH]c(-c2ccccc2)c(-c2ccc(Cl)cc2)c1C(=O)ONC(=O)c1ccccc1` ?
Result block: 11.9

Query block: Which TGI is listed for `Oc1ccc(N=Nc2ccc(Cl)cc2)cc1` ?
Result block: 29

Query block: Which TGI is listed for `O=C1c2cc(Br)ccc2-c2c1c1ccc([N+](=O)[O-])cc1c(=O)n2CCCCl` ?
Result block: 6.12

Query block: Which TGI is listed for `CSC(=NC1=NC(C(F)(F)F)(C(F)(F)F)N=C(c2ccccc2)O1)SC` ?
Result block: 55
